From: ChEMBL document CHEMBL4616632

Assay: Cmax in rat at 10 mg/kg, iv administered as infusion for 0.5 hrs by HPLC/MS analysis
Assay type: ADME, organism-based
Set-up: dose 10 mg/kg, route intravenous
Settings: in vivo
readout_label: Cmax (ng/mL)

In [3]: df
Out[3]:
                                   compound  assay_value
0  O=C(O)c1c(F)ccc2c1OB(O)[C@@H]1C[C@H]21 [XERUBORBACTAM]        26100

###

Assay: Clearance in rat at 100 mg/kg, iv administered as infusion for 0.5 hrs by HPLC/MS analysis
Format: ADME, organism-based
Settings: in vivo
readout_label: clearance (mL/min/kg)

In [3]: df
Out[3]:
                                      smi  unit_label  assay_value
0  O=C(O)c1c(F)ccc2c1OB(O)[C@@H]1C[C@H]21   mL/min/kg         7.83

###

Assay: Oral bioavailability in rat at 50 to 75 mg/kg by HPLC/MS analysis
Assay type: ADME, organism-based
Settings: in vivo
readout_label: bioavailability (%)

>>> print(df.to_string())
                                        smi  unit_label  assay_value
0  COc1ccc2c(c1C(=O)O)OB(O)[C@@H](Sc1nncs1)C2           %            3
1  COc1ccc2c(c1C(=O)OCOC(=O)C(C)(C)C)OB(O)[C@@H](Sc1nncs1)C2           %          100
2  CCOC(=O)OCOC(=O)c1c(OC)ccc2c1OB(O)[C@@H](Sc1nncs1)C2           %           64
3  COc1ccc2c(c1C(=O)OCOC(=O)C(C)C)OB(O)[C@@H](Sc1nncs1)C2           %          100
4  COc1ccc2c(c1C(=O)OCOC(C)=O)OB(O)[C@@H](Sc1nncs1)C2           %           52
5  COc1ccc2c(c1C(=O)OCOC(=O)OC(C)C)OB(O)[C@@H](Sc1nncs1)C2           %           94

###

Biological target: Dipeptidyl peptidase 8 (Homo sapiens, UniProt Q6V1X1)
Sequence (Q6V1X1 whole entry): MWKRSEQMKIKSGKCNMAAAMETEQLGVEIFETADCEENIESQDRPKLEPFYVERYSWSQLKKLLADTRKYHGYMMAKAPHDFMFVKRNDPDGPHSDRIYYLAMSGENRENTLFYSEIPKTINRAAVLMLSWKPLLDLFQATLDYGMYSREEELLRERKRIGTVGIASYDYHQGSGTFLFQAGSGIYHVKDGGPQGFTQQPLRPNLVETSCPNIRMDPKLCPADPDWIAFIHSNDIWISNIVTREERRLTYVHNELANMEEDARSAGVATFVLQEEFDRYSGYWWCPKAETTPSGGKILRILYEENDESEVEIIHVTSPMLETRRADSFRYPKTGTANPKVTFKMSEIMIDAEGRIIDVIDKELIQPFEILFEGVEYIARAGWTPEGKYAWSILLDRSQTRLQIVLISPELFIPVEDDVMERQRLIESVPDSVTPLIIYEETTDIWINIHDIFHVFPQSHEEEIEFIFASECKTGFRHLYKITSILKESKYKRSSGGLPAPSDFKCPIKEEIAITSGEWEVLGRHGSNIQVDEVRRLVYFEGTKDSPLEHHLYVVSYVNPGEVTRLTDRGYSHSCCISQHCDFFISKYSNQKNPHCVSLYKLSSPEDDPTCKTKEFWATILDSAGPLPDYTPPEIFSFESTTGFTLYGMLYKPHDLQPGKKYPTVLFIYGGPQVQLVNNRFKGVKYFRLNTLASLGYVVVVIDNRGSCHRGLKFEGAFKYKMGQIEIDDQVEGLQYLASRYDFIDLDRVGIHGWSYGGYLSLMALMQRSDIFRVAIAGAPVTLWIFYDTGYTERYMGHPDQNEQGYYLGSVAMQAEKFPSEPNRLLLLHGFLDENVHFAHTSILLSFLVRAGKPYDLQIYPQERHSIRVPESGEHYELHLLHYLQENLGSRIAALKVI
pIC50: −log10 of the molar value.
readout_label: pIC50

>>> df
                                      smi                               system_name  assay_value
0  O=C(O)c1c(F)ccc2c1OB(O)[C@@H]1C[C@H]21  Dipeptidyl peptidase 8 (Homo sapiens, UniProt Q6V1X1)       < 3.00

###

Test system: Klebsiella pneumoniae
Experiment: Inhibition of Klebsiella pneumoniae KP1054 VIM-1 assessed as minimum concentration of compound required to reduce the MIC of biapenem to 1 ug/ml
Threshold-based label: MEC under 1 µg/mL gives rule met, MEC not under 1 µg/mL gives rule not met.

In [3]: df
Out[3]:
                                    molecule  assigned_label
 0           COc1ccc2c(c1C(=O)O)OB(O)CC21CC1    rule not met
 1  COc1ccc2c(c1C(=O)O)OB(O)C1CC21 (stereo not drawn)        rule met
 2        N=C(N)S[C@H]1Cc2cccc(C(=O)O)c2OB1O    rule not met
 3  O=C(O)c1cccc2c1OB(O)[C@@H](Sc1nnc[nH]1)C2    rule not met
 4      NC(=O)CCS[C@H]1Cc2cccc(C(=O)O)c2OB1O    rule not met
 5           COc1ccc2c(c1C(=O)O)OB(O)C(F)=C2    rule not met
 6   O=C(O)c1cccc2c1OB(O)[C@@H](Sc1ccccn1)C2    rule not met
 7  COc1ccc2c(c1C(=O)O)OB(O)C(CO)C2 (stereo not drawn)    rule not met
 8   COc1ccc2c(c1C(=O)O)OB(O)[C@H]1C[C@@H]21        rule met
 9              C[C@H]1Cc2cccc(C(=O)O)c2OB1O    rule not met
10   O=C(O)c1cccc2c1OB(O)[C@@H](Sc1cccnc1)C2    rule not met
11  Nc1nnc(S[C@H]2Cc3cccc(C(=O)O)c3OB2O)[nH]1        rule met
12  COc1ccc2c(c1C(=O)O)OB(O)[C@@H](Sc1nncs1)C2        rule met
13              COc1ccc2c(c1C(=O)O)OB(O)C=C2    rule not met
14  Nc1nnc(S[C@H]2Cc3ccc(OCC(F)F)c(C(=O)O)c3OB2O)s1        rule met
15  COc1ccc2c(c1C(=O)O)OB(O)C1CCC21 (stereo not drawn)    rule not met
16  O=C(O)c1c(OC(F)F)ccc2c1OB(O)[C@@H](Sc1nncs1)C2    rule not met
17   O=C(O)c1cccc2c1OB(O)[C@@H](Sc1ncccn1)C2    rule not met

###

Assay: AUC in rat at 1000 mg/kg, po administered via gavage by HPLC/MS analysis
Assay type: ADME, organism-based
Conditions: in vivo
readout_label: AUC (µg·h/mL)

                                   compound  assay_value
0  O=C(O)c1c(F)ccc2c1OB(O)[C@@H]1C[C@H]21 [XERUBORBACTAM]          504

###

Tested on: Escherichia coli
Experiment: Inhibition of Escherichia coli ECM6625 SHV-5 assessed as minimum concentration of compound needed to reduce the MIC of aztreonam to 4 ug/ml
readout_label: MEC (µg/mL)

                                    molecule  readout_label  unit_label  qualifier_operator  assay_value
 0             C[C@@H]1Cc2cccc(C(=O)O)c2OB1O            MEC       µg/mL                   >           20
 1         COc1ccc2c(c1C(=O)O)OB(O)C1(CC1)C2            MEC       µg/mL                   >           20
 2   COc1ccc2c(c1C(=O)O)OB(O)[C@H]1C[C@@H]21            MEC       µg/mL                   =          0.3
 3       O=C(O)c1nccc2c1OB(O)[C@H]1C[C@@H]21            MEC       µg/mL                   =           10
 4       O=C(O)c1cccc2c1OB(O)[C@@H]1C[C@H]21            MEC       µg/mL                   =          0.3
 5                O=C(O)c1c(F)ccc2c1OB(O)CC2            MEC       µg/mL                   =          0.6
 6  COc1ccc2c(c1C(=O)O)OB(O)C1(CO)CC21 (stereo not drawn)            MEC       µg/mL                   =            5
 7                   O=C(O)c1cccc2c1OB(O)CC2            MEC       µg/mL                   =           20
 8                   O=C(O)c1nccc2c1OB(O)CC2            MEC       µg/mL                   =            5
 9           COc1ccc2c(c1C(=O)O)OB(O)CC21CC1            MEC       µg/mL                   =         1.25
10  COc1ccc2c(c1C(=O)O)OB(O)C1CCC21 (stereo not drawn)            MEC       µg/mL                   =           10
11              C[C@H]1Cc2cccc(C(=O)O)c2OB1O            MEC       µg/mL                   =           20
12   COc1ccc2c(c1C(=O)O)OB(O)[C@@H]1C[C@H]21            MEC       µg/mL                   =         0.08

###

Test: AUC in rat at 10 mg/kg, iv administered as infusion for 0.5 hrs by HPLC/MS analysis
Assay type: ADME, organism-based
Conditions: in vivo
readout_label: AUC at 0.5 h (ng·h/mL)

                                      smi  assay_value
0  O=C(O)c1c(F)ccc2c1OB(O)[C@@H]1C[C@H]21        35200
